These data points were gathered from paper PMC8000448.

target: CYP3A (Homo sapiens); assay: CYP3A inhibition in HLMs (midazolam, nifedipine, testosterone); conditions: pooled human liver microsomes, pH 7.4, probe nifedipine (cocktail set B), IC50 RI, CYP3A (nifedipine), HLMs, nifedipine, reversible inhibition;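 also: pooled HLMs at 0.25 mg/mL in phosphate buffer, inhibitor across 0–50 µM, 10 min reaction at 37 °C after preincubation, probe metabolite quantified by LC-MS/MS, triplicate incubations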
Sequence (P08684 2-503): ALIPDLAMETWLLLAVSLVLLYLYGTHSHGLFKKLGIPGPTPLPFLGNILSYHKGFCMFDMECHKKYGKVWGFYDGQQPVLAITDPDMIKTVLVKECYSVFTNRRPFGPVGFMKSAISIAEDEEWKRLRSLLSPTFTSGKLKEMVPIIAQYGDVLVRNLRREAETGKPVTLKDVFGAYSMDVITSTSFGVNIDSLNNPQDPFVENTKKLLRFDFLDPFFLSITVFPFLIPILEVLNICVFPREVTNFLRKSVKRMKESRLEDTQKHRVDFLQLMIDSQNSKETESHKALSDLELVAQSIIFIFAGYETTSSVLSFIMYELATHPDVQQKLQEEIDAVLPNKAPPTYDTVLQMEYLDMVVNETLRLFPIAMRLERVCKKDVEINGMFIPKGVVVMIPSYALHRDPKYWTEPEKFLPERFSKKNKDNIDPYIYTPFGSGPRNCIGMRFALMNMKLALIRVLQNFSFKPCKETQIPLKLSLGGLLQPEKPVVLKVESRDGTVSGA
assay metric: IC50 at 10 min (µM)
Give the number; µM is assumed, so skip it.

test smiles	IC50 at 10 min [µM]
COc1cc2c(c(OC)c1OC)-c1c(cc(OC)c(OC)c1OC)C[C@](C)(O)[C@@H](C)C2	16
COc1cc2c(c(OC)c1OC)-c1c(cc3c(c1OC)OCO3)C[C@H](C)[C@](C)(O)[C@H]2OC(=O)c1ccccc1	0.26
COc1c2c(cc3c1-c1c(cc4c(c1OC)OCO4)C[C@H](C)[C@H](C)C3)OCO2	5.6

Enquiry: Could you share which IC50 at 10 min value was measured for `COc1cc2c(c(OC)c1OC)-c1c(cc3c(c1OC)OCO3)C[C@H](C)[C@H](C)C2` ?
Return: 1.4
